Taken from PubChem BioAssay (NCI).

growth overview
- System: SR leukemia
- experiment.notes: NCI-60 one-dose screen, 48 h (100 = growth as untreated, 0 = no growth, -100 = all killed)
- condition.summary: 10 µM unless noted
About 83,000 compounds went through this panel and 20% of them were active in at least one assay; those are over-represented in the sample as a whole.
The reply should contain only the number, in %.

compound: Cn1c(=O)c2nc(SCc3ccccc3)n(C)c2n(C)c1=O
growth / %: 83.3

For the compound NCCCc1nnc(CCC(=O)c2nc3ccccc3[nH]2)o1 , what growth is on record? 84.5

Another compound to check: O=c1[nH]c(=O)n(C2CC(O)C(CO)O2)cc1C(F)(F)F (stereo unspecified) -24.8

* * *

- System: UACC-257 melanoma
- experiment.notes: NCI-60 one-dose screen, 48 h
- condition.summary: 10 µM unless noted
- Procedure: Cells are grown in 96 well plates and exposed to the test compound for 48 hours. Compounds are tested at a single concentration, which is 10^-5 M for most compounds. The reported endpoint is percent growth (GI% or GIPRCNT), where numbers from 0 - 100% represent growth inhibition, and numbers from -100% - 0 represent cell death. For example, a value of 40 represents 60% growth inhibition. A value of 0 means no net growth occurred over the course of the experiment. […]
Compounds without any hit were thinned out: in the full panel of roughly 83,000, 20% have a hit. Active and inactive are the calls of the source. Rule for the calls: active = growth percent below 10; inactive = the rest.
Form entry, call: pick from label 1 = active, label 0 = inactive

Please review the entries below; each comes with its answer.
compound: C=C(C)[C@H]1CC/C(C)=C/CC[C@]2(C)O[C@H]2CC/C(COC(C)=O)=C\C1=O
group: label 0
//
compound: CC(=O)Oc1ccc(C23c4ccccc4C2(OC(C)=O)c2cc(OC(C)=O)ccc23)cc1 (stereo unspecified)
group: label 0
//
compound: COc1c(O)cc2oc3cc(O)c(CC=C(C)C)c(O)c3c(=O)c2c1C/C=C(\C)CCC=C(C)C
group: label 0

What outcome does the record of this test show for CC[N+](CC)(CCOCCOCC[N+](CC)(CC)Cc1ccc([N+](=O)[O-])cc1)Cc1ccc([N+](=O)[O-])cc1 ? label 0

Lookup COc1ccc(-c2cn(-c3ccccc3)c(-c3ccccc3)n2)cc1OC label 0

// next record ClC1=C(Cl)C(Cl)=C(Cl)C1=C/C=C/c1ccccc1 label 1

Okay, and CN1CCN(CC(=O)Nc2nc3c(s2)Nc2cc(Cl)c(Cl)cc2NC3=O)CC1 ? label 0

// next record O=C(Nc1cccc(-n2cc(-c3ccncc3)c(-c3ccc(O)c(Cl)c3)n2)c1)Nc1ccc(Cl)c(C(F)(F)F)c1 label 1

Can you check CCCc1cc(=O)n2c(C(=O)Nc3ccccc3OC)c(C(=O)Nc3ccc(F)cc3)sc2n1 next? label 0

Then O=C1C2C3C=CC(O3)C2C(=O)N1Nc1ccccc1 (stereo unspecified) ? label 0

Also CCN(CC)CCCNCCCNc1cc(OC)cc2cccnc12 , if possible. label 0

How about Cc1nn(-c2ccccc2)c2c1oc(=O)c1cc(Cl)ccc12 ? label 0

Another compound: COc1ccc(C2CC(c3ccc(OC)c(OC)c3)=NN2C(=O)c2cc(OC)c(OC)c(OC)c2)cc1 (stereo unspecified) label 0

Similarly, O=C1CC(C(F)(F)F)=NN1C(=O)c1nn(-c2ccc(Cl)cc2)cc1O ? label 0

Can you handle O=C1Cc2cc(CCn3cncn3)c(Cl)cc2N1 next? label 0

Do the same for O=C(NCCCO)c1cc(Cl)ccc1O please label 0

And what about the compound COc1ccc(C(=O)COc2cccc(/C=C3\Oc4ccc5ccccc5c4C3=O)c2)cc1 ? label 0

Input O=C(Nc1ccc(Nc2ccncc2)cc1)c1ccc(Nc2ccnc3ccc([N+](=O)[O-])cc23)cc1[N+](=O)[O-] label 0

# repeat for CC[N+](C)(CC)CCCC(C)Nc1ccnc2cc(Cl)ccc12 (stereo unspecified) label 0

Field entry: Clc1ccc(-n2cnc3c(Cl)ncnc32)cc1Cl label 0

Now the same for Clc1ccccc1[C@@H]1C[C@@H]2Cc3cc(Br)c4ccccc4c3N1O2 label 0

* * *

- System: NCI-H322M lung
- experiment.notes: NCI-60 one-dose screen, 48 h (100 = growth as untreated, 0 = no growth, -100 = all killed)
- condition.summary: 10 µM unless noted
This is part of a sample that, as a whole, favours compounds with a hit. Of some 83,000 tested, about 20% had one in any assay.
Label scheme for growth: lower than 80% is Condition not met, 80% and above is Condition met.

molecule: COC(=O)[C@]1(C(C)C)N[C@H](c2cn(-c3ccccc3)nc2-c2ccccc2)[C@@H]2C(=O)N(c3ccc(Cl)cc3)C(=O)[C@@H]21
group: Condition met
//
molecule: CC1=CSC2=NCCN12
group: Condition met
//
molecule: CCCc1nn(C)c2c(=O)[nH]c(-c3cc(S(=O)(=O)N4CCN(C)CC4)ccc3OCC)nc12
group: Condition met
//
molecule: CC(C)C(=O)Cc1cnccn1
group: Condition met
//
molecule: COC(=O)CC1=C(C)/C(=C/c2[nH]c(-c3ccc[nH]3)cc2OC)N=C1C
group: Condition not met

Is growth at least 80%? Consider Oc1ccccc1/C=N\Nc1ccccc1 Condition not met

Also need Cn1cc(-c2nc(-c3c[nH]c4ncccc34)cs2)c2cccnc21 , thanks. Condition not met

Can you handle NNC(=O)C1CC2c3ccccc3C1c1ccccc12 (stereo unspecified) next? Condition met

Now the molecule c1csc([C@@H]2C[C@@H]3Cc4ccc5ccccc5c4N2O3)c1 Condition met

Again, but for CCCCCCCC/C=C/CCCCCCCC1=NC(C)(C)CN1CCO Condition not met

* * *

- System: NCI-H23 lung
- experiment.notes: NCI-60 one-dose screen, 48 h (100 = growth as untreated, 0 = no growth, -100 = all killed)
- condition.summary: 10 µM unless noted
The panel holds about 83,000 compounds, 20% with a hit somewhere; the sample as a whole holds those more often.
Note to self: values exactly at 40% are 1.0. So growth at or above 40% is 1.0, below is 0.0.

Please review the entries below; each comes with its answer.
molecule: CN(C)c1ccc2c(c1)/C(=N/O)c1ccccc1-2
study.system: NCI-H23 lung
group: 1.0
--
molecule: CC(=O)Oc1ccc(C2OC(c3ccc4ccccc4c3OC(C)=O)=NN2C(C)=O)c(OC(C)=O)c1 (stereo unspecified)
study.system: NCI-H23 lung
group: 0.0
--
molecule: CCCCCCCCCCSc1ncnc2nc[nH]c12
study.system: NCI-H23 lung
group: 0.0
--
molecule: O=[N+]([O-])c1ccc2c(c1)S(=O)c1cc([N+](=O)[O-])ccc1N2
study.system: NCI-H23 lung
group: 1.0
--
molecule: COc1ccc(-c2cnnn2-c2cc(OC)c3c(c2)OCO3)cc1
study.system: NCI-H23 lung
group: 0.0

With those in mind, consider the next molecule.
Could you tell me if the measured growth of Nc1ccc(C2=NN(c3ccccc3)C(c3ccc(Cl)cc3)C2)cc1 (stereo unspecified) reaches 40% or more? 1.0

* * *

- Test system: OVCAR-5 ovarian
- experiment.notes: NCI-60 one-dose screen, 48 h (100 = growth as untreated, 0 = no growth, -100 = all killed)
- condition.summary: 10 µM unless noted
Compounds without any hit were thinned out: in the full panel of roughly 83,000, 20% have a hit.
observed.property: growth (%)
Give just the numeric value; % need not be written.

A selection of reference data follows.
compound: COc1ccc(C(=O)C(C)Br)cc1OC (stereo not given)
growth [%]: 84.7

compound: COc1cc(/C=C/C(=O)Nc2ccc3c(c2)/C(=C\c2cccn2C)C(=O)N3)cc(OC)c1OC
growth [%]: 99.5

compound: CN(CC(=O)N(Cc1ccc(C2CCCCC2)cc1)c1ccc(C(=O)O)cc1)S(=O)(=O)c1c(F)c(F)c(F)c(F)c1F
growth [%]: 116

compound: O=Cc1c[nH]c2ccc(NC(=O)OCc3ccccc3)cc12
growth [%]: 97.5

compound: COc1ccc2c(c1)nc(N)c1c3cc(C)c(C)cc3cn21
growth [%]: 111

Entry C[N+]1(CCc2ccccc2)CCC(CCC2CC[N+](C)(CCc3ccccc3)CC2)CC1 (stereo not given) : reported growth = ? 104

What about COc1cccc2c1O/C(=C\c1c([N+](=O)[O-])ncn1C)C2=O ? 108

And what about the compound CCCCCCCC/C=C/CCCCCCCC1=NC(C)(C)CN1CC(C)O (stereo not given) ? 83.8

Same read-out for COc1ccc(-c2cc(Cc3cccs3)c(=O)n(Cn3ccc4ccccc43)n2)cc1 ? 99.9

Proceed to C/C(=N/N=C(N)N)c1ccc(Cl)cc1 87.8

* * *

- System: SNB-19 CNS
- experiment.notes: NCI-60 one-dose screen, 48 h (100 = growth as untreated, 0 = no growth, -100 = all killed)
- condition.summary: 10 µM unless noted
- Method: Growth inhibition of the SNB-19 human tumor cell line is measured as a screen for anti-cancer activity. Cells are grown in 96 well plates and exposed to the test compound for 48 hours. Compounds are tested at a single concentration, which is 10^-5 M for most compounds. The reported endpoint is percent growth (GI% or GIPRCNT), where numbers from 0 - 100% represent growth inhibition, and numbers from -100% - 0 represent cell death. For example, a value of 40 represents 60% growth inhibition. […]
Compounds without any hit were thinned out: in the full panel of roughly 83,000, 20% have a hit.
Response field label: string, one of met (growth strictly below 80%) or not met.

Solved cases (2 shown):
compound: O=C(/C=C/c1ccc(O)c(O)c1)N1CCN(c2ccc(Cl)cc2)CC1
group: met
--
compound: c1ccc2c(c1)[nH]c1c2cc[n+]2cc3c(cc12)CCCC3
group: met

Problem: For the compound COc1ccc(Cn2c(NCCCN(C)C)nc(=O)n(Cc3ccc(F)cc3)c2=O)cc1 , is growth under 80%? not met

Request: Cc1ccccc1NC(=O)c1cc2ccccc2cc1O met

// same read-out, input: COc1cc2cn3c4ccc(O)cc4nc(N)c3c2cc1OC met

Check COc1cc(/C=C/C(=O)c2c(-c3ccc(Cl)cc3)nc3sc(C)nn23)cc(OC)c1OC too. not met

Now consider Cc1cc(NCCCNc2ccnc3cc(Cl)ccc23)nc(N2CCN(C)CC2)n1 and answer again. not met

And Cc1ccsc1/C=C/C1=NCCCN1C ? not met

What do we get for O=C(c1ccccc1)c1ccccc1Cl ? not met

How about this compound: CN(C)c1ccc(/C=C(\C#N)c2nc3ccccc3c(=O)[nH]2)cc1 not met

Another compound: O=C(COC(=O)[C@H](C[Se][Se]C[C@H](NC(=O)c1ccc(Br)cc1F)C(=O)OCC(=O)c1ccc(F)cc1)NC(=O)c1ccc(Br)cc1F)c1ccc(F)cc1 met

Same question for Cn1cc(-c2csc(-c3cn(C)c4ncccc34)n2)c2cc(F)cnc21 please. not met

Repeat for the following compound: OC(Cc1cccnc1)c1ccccc1 (stereo not given) not met

Subsequent entry: COc1ccc(C2CC(c3ccc(OC)c(OC)c3)=NN2C(=O)c2cc(OC)c(OC)c(OC)c2)cc1 (stereo not given) met

Then CCOC(=O)C1=C(COCCN)NC(C)=C(C(=O)OC)C1c1ccccc1Cl (stereo not given) ? not met

// next record Cn1cc(-c2csc(-c3cn(C)c4ncccc34)n2)c2cccnc21 not met

Record: C=Cc1nn2c(CCC(=O)c3nc4ccccc4[nH]3)nnc2s1 not met

Param item: CO[C@H]1/C=C/O[C@@]2(C)Oc3c(C)c(O)c4c(O)c(c(/C=N/N5C(C)CN(Cc6ccccc6)CC5C)c(O)c4c3C2=O)NC(=O)/C(C)=C\C=C\[C@H](C)[C@H](O)[C@@H](C)[C@@H](O)[C@@H](C)[C@H](OC(C)=O)[C@@H]1C (stereo not given in full) not met

Same read-out for O=C(Nc1ccncc1)C(=O)c1cn(S(=O)(=O)c2cccc(F)c2)c2ccccc12 ? met

Could you do the same for O=C(O)c1ccccc1C(=O)OC1CCCC2CCCC21 (stereo not given) , please? not met
